system: Klebsiella Pneumoniae Exp. 52145; assay: M.I.C., dilutions in liquid medium; type: cell-based; settings: Klebsiella pneumoniae, 24 h, 37° C.
measurement.label: MIC (µg/mL)
Provide the reading as a plain figure in µg/mL.

GET /values?readout=MIC&item= Nc1nc(C(=NO)C(=O)NC2C(=O)N(S(=O)(=O)O)C2CCl)cs1 (mixture of isomers) 5

====

system: Proteus vulgaris (indol +) A 232; assay: M.I.C., dilutions in liquid medium; assay type: cell-based; settings: Proteus vulgaris; 24 Hr., 37° C.
Below, each of the compounds is paired with its reported MIC value.

// worked examples, MIC included
compound | MIC
CC(C)(ON=C(C(=O)NC1C(=O)N(S(=O)(=O)O)C1CF)c1csc(N)n1)C(=O)O (mixture of isomers) | ≤ 0.04 µg/mL
Nc1nc(C(=NOC(F)F)C(=O)NC2C(=O)N(S(=O)(=O)O)C2CF)cs1 (mixture of isomers) | ≤ 0.04 µg/mL

The record that follows has no MIC shown yet.
GET /values?readout=MIC&item= CON=C(C(=O)NC1C(=O)N(S(=O)(=O)O)C1CF)c1csc(N)n1 (mixture of isomers) ≤ 0.04 µg/mL

====

tested on: Klebsiella Pneumoniae Exp. 52145; experiment: M.I.C., dilutions in liquid medium; type: cell-based; conditions: Klebsiella pneumoniae, 24 h, 37° C.
measurement.label: MIC

// worked examples, MIC included
compound | MIC
Nc1nc(C(=NOC(F)F)C(=O)NC2C(=O)N(S(=O)(=O)O)C2CF)cs1 (mixture of isomers) [Example 8] | 0.3 µg/mL
CC(C)(ON=C(C(=O)NC1C(=O)N(S(=O)(=O)O)C1CF)c1csc(N)n1)C(=O)O (mixture of isomers) [Example 6] | 0.6 µg/mL
CON=C(C(=O)NC1C(=O)N(S(=O)(=O)O)C1CCl)c1csc(N)n1 (mixture of isomers) [Example 1] | 1.25 µg/mL

The record that follows has no MIC shown yet.
GET /values?readout=MIC&item= NCCON=C(C(=O)NC1C(=O)N(S(=O)(=O)O)C1CCl)c1csc(N)n1 (mixture of isomers) [Example 3] 5 µg/mL

These measurements were taken from patent US5057512A.
